Recorded values, source patent US12503452B2.

System: A. baumannii (Ab)
experiment notes: Broth microdilution minimum inhibitory concentration (MIC)
Format: cell-based
measurement setup: Acinetobacter baumannii; A. baumannii; growth medium with sodium bicarbonate; read-out: Ab + bicarb MIC
Kindly state MIC for each of the entries shown.

// known answers, use as guide
CCN(C[C@H]1CCC[C@H](N)C1)C(C)Cc1ccc(-n2ccc(NC(=O)N3CCN(C(=O)C(C)(C)N)CC3)nc2=O)cc1 (stereo partly shown) [Compound 280]
> 32 µg/mL
CC(CN1CCC[C@H](N)CC1)c1ccc(-n2ccc(NC(=O)N3CCN(C(=O)C(C)(C)N)CC3)nc2=O)cc1 (stereo partly shown) [Compound 290]
< 8 µg/mL
NC1CCCN(CCc2ccc(-n3ccc(NC(=O)N4CC5(CCC5N)C4)nc3=O)cc2)CC1 (stereo not shown) [Compound 195]
> 32 µg/mL

Could you tell me MIC for each of these compounds? They are listed below.
1. CC(Cc1ccc(-n2ccc(NC(=O)N3CCN(C(=O)C(C)(C)N)CC3)nc2=O)cc1)N1CCC(C2CNC2)CC1 (stereo not shown) [Compound 379]
2. CC(Cc1ccc(-n2ccc(NC(=O)N3CCN(C(=O)C(C)(C)N)CC3)nc2=O)cc1)N(C)CC1CNC1 (stereo not shown) [Compound 166]
3. CN(CCc1ccc(-n2ccc(NC(=O)N3CCN(C(=O)C(C)(C)N)CC3)nc2=O)cc1)[C@H]1CC[C@@H](CN)C1 (stereo in doubt) [Compound 178]
4. CC(Cc1ccc(-n2ccc(NC(=O)N3CCN(C(=O)C(C)(C)N)CC3)nc2=O)cc1)N[C@@H]1CC[C@@H](N)C1 (stereo partly shown) [Compound 173]

["> 32 µg/mL", "> 32 µg/mL", "> 32 µg/mL", "> 32 µg/mL"]
